All values here come from patent US9018251B2.

Each record here notes measured IC50.
- Test system: brain cancer cell line 8901
- assay_notes: MTT cell viability assay, 8901 (with CalcuSyn combination index)
- Assay type: cell-based
- condition_details: 48 h, single agent, cultured 2 days, MTT
Numeric only. Scale: µM

compound="CCC/C=C1\\OC(=O)c2ccccc21 [(Z)-butylidenephthalide]" reported_endpoint=IC50 scale_unit=µM numeric_result=219

Now examine the next entry.
Entry Cn1nnc2c(C(N)=O)ncn2c1=O [temozolomide] : reported IC50 = ?
1200
